settings: in n-propanol, 308.15 K

{"columns": ["smiles-input", "solubility (mole fraction)"],
 "data": [
  ["Nc1cccc2ccncc12", 0.00984]
]}

====

settings: in ethanol, 303.15 K
property: solubility (mole fraction)

{"columns": ["smiles-input", "observed"],
 "data": [
  ["Nc1cccc2ccncc12", 0.00308]
]}

====

settings: in isopropanol, 313.15 K
property: solubility (mole fraction)

{"columns": ["smiles-input", "observed"],
 "data": [
  ["Nc1cccc2ccncc12", 0.00934]
]}

====

conditions: in n-propanol, 303.15 K

{"columns": ["smiles-input", "solubility (mole fraction)"],
 "data": [
  ["Nc1cccc2ccncc12", 0.00831]
]}

====

details: in acetonitrile, 308.15 K

{"columns": ["smiles-input", "solubility (mole fraction)"],
 "data": [
  ["Nc1cccc2ccncc12", 0.0131]
]}

====

details: in methanol, 318.15 K

{"columns": ["smiles-input", "solubility (mole fraction)"],
 "data": [
  ["Nc1cccc2ccncc12", 0.00128]
]}

====

details: in DMF, 283.15 K

{"columns": ["smiles-input", "solubility (mole fraction)"],
 "data": [
  ["Nc1cccc2ccncc12", 0.00693]
]}

====

conditions: in propylene glycol, 283.15 K

{"columns": ["smiles-input", "solubility (mole fraction)"],
 "data": [
  ["Nc1cccc2ccncc12", 0.000211]
]}

====

conditions: in n-propanol, 283.15 K
property: solubility (mole fraction)

{"columns": ["smiles-input", "property", "observed"],
 "data": [
  ["Nc1cccc2ccncc12", "solubility (mole fraction)", 0.0042]
]}

====

details: in n-propanol, 288.15 K

{"columns": ["smiles-input", "solubility (mole fraction)"],
 "data": [
  ["Nc1cccc2ccncc12", 0.00497]
]}

====

conditions: in isopropanol, 308.15 K
property: solubility (mole fraction)

{"columns": ["smiles-input", "observed"],
 "data": [
  ["Nc1cccc2ccncc12", 0.00784]
]}

====

conditions: in methanol, 278.15 K
property: solubility (mole fraction)

{"columns": ["smiles-input", "property", "observed"],
 "data": [
  ["Nc1cccc2ccncc12", "solubility (mole fraction)", 0.000354]
]}

====

settings: in DMF, 318.15 K
property: solubility (mole fraction)

{"columns": ["smiles-input", "observed"],
 "data": [
  ["Nc1cccc2ccncc12", 0.023]
]}

====

details: in methanol, 293.15 K
property: solubility (mole fraction)

{"columns": ["smiles-input", "observed"],
 "data": [
  ["Nc1cccc2ccncc12", 0.000559]
]}

====

settings: in acetone, 293.15 K
property: solubility (mole fraction)

{"columns": ["smiles-input", "observed"],
 "data": [
  ["Nc1cccc2ccncc12", 0.00532]
]}

====

conditions: in acetone, 313.15 K
property: solubility (mole fraction)

{"columns": ["smiles-input", "property", "observed"],
 "data": [
  ["Nc1cccc2ccncc12", "solubility (mole fraction)", 0.0105]
]}

====

conditions: in acetone, 278.15 K

{"columns": ["smiles-input", "solubility (mole fraction)"],
 "data": [
  ["Nc1cccc2ccncc12", 0.00309]
]}

====

details: in acetonitrile, 323.15 K

{"columns": ["smiles-input", "solubility (mole fraction)"],
 "data": [
  ["Nc1cccc2ccncc12", 0.0219]
]}

====

conditions: in ethanol, 283.15 K
property: solubility (mole fraction)

{"columns": ["smiles-input", "observed"],
 "data": [
  ["Nc1cccc2ccncc12", 0.00161]
]}

====

settings: in water, 298.15 K
property: solubility (mole fraction)

{"columns": ["smiles-input", "observed"],
 "data": [
  ["Nc1cccc2ccncc12", "6.21e-05"]
]}

====

details: in ethylene glycol, 283.15 K

{"columns": ["smiles-input", "solubility (mole fraction)"],
 "data": [
  ["Nc1cccc2ccncc12", 0.000132]
]}

====

settings: in methanol, 298.15 K
property: solubility (mole fraction)

{"columns": ["smiles-input", "observed"],
 "data": [
  ["Nc1cccc2ccncc12", 0.000664]
]}

====

settings: in isopropanol, 278.15 K

{"columns": ["smiles-input", "solubility (mole fraction)"],
 "data": [
  ["Nc1cccc2ccncc12", 0.00283]
]}

====

conditions: in isopropanol, 293.15 K

{"columns": ["smiles-input", "solubility (mole fraction)"],
 "data": [
  ["Nc1cccc2ccncc12", 0.00477]
]}

====

conditions: in water, 278.15 K
property: solubility (mole fraction)

{"columns": ["smiles-input", "observed"],
 "data": [
  ["Nc1cccc2ccncc12", "3.46e-05"]
]}

====

settings: in acetonitrile, 278.15 K

{"columns": ["smiles-input", "solubility (mole fraction)"],
 "data": [
  ["Nc1cccc2ccncc12", 0.00458]
]}

====

conditions: in water, 283.15 K

{"columns": ["smiles-input", "solubility (mole fraction)"],
 "data": [
  ["Nc1cccc2ccncc12", "4e-05"]
]}

====

settings: in propylene glycol, 323.15 K

{"columns": ["smiles-input", "solubility (mole fraction)"],
 "data": [
  ["Nc1cccc2ccncc12", 0.00085]
]}

====

conditions: in DMF, 313.15 K

{"columns": ["smiles-input", "solubility (mole fraction)"],
 "data": [
  ["Nc1cccc2ccncc12", 0.0196]
]}

====

conditions: in DMF, 293.15 K

{"columns": ["smiles-input", "solubility (mole fraction)"],
 "data": [
  ["Nc1cccc2ccncc12", 0.01]
]}

====

details: in isopropanol, 298.15 K
property: solubility (mole fraction)

{"columns": ["smiles-input", "property", "observed"],
 "data": [
  ["Nc1cccc2ccncc12", "solubility (mole fraction)", 0.00566]
]}

====

settings: in propylene glycol, 308.15 K

{"columns": ["smiles-input", "solubility (mole fraction)"],
 "data": [
  ["Nc1cccc2ccncc12", 0.000516]
]}

====

details: in acetone, 298.15 K

{"columns": ["smiles-input", "solubility (mole fraction)"],
 "data": [
  ["Nc1cccc2ccncc12", 0.00636]
]}

====

conditions: in ethanol, 323.15 K
property: solubility (mole fraction)

{"columns": ["smiles-input", "property", "observed"],
 "data": [
  ["Nc1cccc2ccncc12", "solubility (mole fraction)", 0.00602]
]}

====

details: in ethylene glycol, 293.15 K
property: solubility (mole fraction)

{"columns": ["smiles-input", "property", "observed"],
 "data": [
  ["Nc1cccc2ccncc12", "solubility (mole fraction)", 0.000183]
]}

====

conditions: in ethanol, 293.15 K
property: solubility (mole fraction)

{"columns": ["smiles-input", "property", "observed"],
 "data": [
  ["Nc1cccc2ccncc12", "solubility (mole fraction)", 0.0022]
]}

====

conditions: in n-propanol, 293.15 K
property: solubility (mole fraction)

{"columns": ["smiles-input", "observed"],
 "data": [
  ["Nc1cccc2ccncc12", 0.00593]
]}

====

conditions: in acetonitrile, 298.15 K
property: solubility (mole fraction)

{"columns": ["smiles-input", "observed"],
 "data": [
  ["Nc1cccc2ccncc12", 0.00939]
]}

====

conditions: in acetone, 288.15 K

{"columns": ["smiles-input", "solubility (mole fraction)"],
 "data": [
  ["Nc1cccc2ccncc12", 0.00439]
]}

====

settings: in propylene glycol, 293.15 K
property: solubility (mole fraction)

{"columns": ["smiles-input", "property", "observed"],
 "data": [
  ["Nc1cccc2ccncc12", "solubility (mole fraction)", 0.000304]
]}

====

conditions: in ethanol, 313.15 K
property: solubility (mole fraction)

{"columns": ["smiles-input", "observed"],
 "data": [
  ["Nc1cccc2ccncc12", 0.0043]
]}

====

conditions: in n-propanol, 313.15 K
property: solubility (mole fraction)

{"columns": ["smiles-input", "property", "observed"],
 "data": [
  ["Nc1cccc2ccncc12", "solubility (mole fraction)", 0.0115]
]}

====

conditions: in propylene glycol, 318.15 K
property: solubility (mole fraction)

{"columns": ["smiles-input", "observed"],
 "data": [
  ["Nc1cccc2ccncc12", 0.000718]
]}

====

conditions: in water, 323.15 K
property: solubility (mole fraction)

{"columns": ["smiles-input", "property", "observed"],
 "data": [
  ["Nc1cccc2ccncc12", "solubility (mole fraction)", 0.000132]
]}

====

conditions: in water, 308.15 K

{"columns": ["smiles-input", "solubility (mole fraction)"],
 "data": [
  ["Nc1cccc2ccncc12", "8.42e-05"]
]}

====

conditions: in methanol, 303.15 K

{"columns": ["smiles-input", "solubility (mole fraction)"],
 "data": [
  ["Nc1cccc2ccncc12", 0.000773]
]}

====

settings: in isopropanol, 288.15 K

{"columns": ["smiles-input", "solubility (mole fraction)"],
 "data": [
  ["Nc1cccc2ccncc12", 0.00401]
]}

Data provenance: BigSolDB 2.1
